system: H9c2 cardiomyocytes, 2-deoxyglucose stress, ATP luminescence, 2 h; experiment: H9c2 cell survival under 2-deoxyglucose stress – uHTS hits, dose response (AID 588780)
Active and inactive are the calls of the source.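 How the source made its calls: active means compounds whose fitted half-maximal concentration in the cell-protection dose series is at or below a set limit; inactive means the rest.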
Your answer must be one of the following: 1 (yes) for active, 0 (no) for inactive

Before answering, review these 3 worked examples.
| molecule | class.label |
| --- | --- |
| Cc1sc2nc(SCC(=O)NCc3ccco3)[nH]c(=O)c2c1C | 0 (no) |
| CCOC(=O)C1=C(CC)Nc2ccccc2N=C1NC(=O)c1ccc(S(=O)(=O)N(C)C)cc1 | 0 (no) |
| COc1ccc(-c2nnc(-c3cc(OC)c(OC)c(OC)c3)o2)cc1OC | 1 (yes) |

How did this test come out for `O=C(c1ccoc1)N1CCN(c2cc(-c3ccncc3)nc3cc(-c4cccc(Cl)c4)nn23)CC1` ?
0 (no)

How did this test come out for `O=c1[nH]nc(Cc2ccccc2)c2ccccc12` ?
0 (no)

How did this test come out for `O=C(CCc1nc2ccccc2c(=O)[nH]1)N1CCN(S(=O)(=O)c2cc(Cl)ccc2Cl)CC1` ?
0 (no)

How did this test come out for `Cc1cccc(NC(=O)c2cc(-c3ccco3)nc3ccccc23)n1` ?
0 (no)

How did this test come out for NC(=O)c1nsc(C(=O)N(c2ccccc2)C(C(=O)NC2CCCC2)c2ccc3ncccc3c2)c1N (centres undefined) ?
0 (no)

How did this test come out for `CC(C)(C)c1ccc(OCCCC(=O)NNC(=O)c2ccccc2O)cc1` ?
0 (no)

How did this test come out for `O=C(Cc1n[nH]c(=O)c2ccccc12)OCC(=O)c1ccccc1` ?
0 (no)

How did this test come out for `CCCC(=O)Nc1nc2ccc(NC(=O)c3ccc(Br)o3)cc2s1` ?
0 (no)

How did this test come out for COc1cc(OC)c2ccc(=O)oc2c1C(CC(=O)N1CCN(c2ccccc2)CC1)c1ccc2c(c1)OCO2 (centres undefined) ?
0 (no)

How did this test come out for `O=C(COC(=O)CCc1nc2ccccc2c(=O)[nH]1)NC(c1ccccc1)c1ccccc1` ?
0 (no)

How did this test come out for `O=C(CSc1nc2ccccc2c(=O)[nH]1)N1CCCCCC1` ?
0 (no)

How did this test come out for `CCOc1cc(-c2cc(-c3ccc(N)cc3)nc(N)c2C#N)ccc1O` ?
1 (yes)

How did this test come out for CCOC(=O)C1=C(COC(=O)/C=C/c2ccc(F)cc2)NC(=O)NC1C (centres undefined) ?
1 (yes)
